B1: Triacylglycerol hydrolase DDHD2, residues 389 to 447; numbered along this chain, O94830 (parent)
chain: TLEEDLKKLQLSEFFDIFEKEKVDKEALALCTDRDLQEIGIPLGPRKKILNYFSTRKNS

Variants of: B1
ASSAY_PROTOCOL: abundance fitness (aPCA) (normalised: wild type 0, dead -1); higher = more abundant; growth selection in yeast, the domain comes from the species named
CONDITION: Homo sapiens
METRIC: abundance fitness
One number for each entry.

E26K | 0.481
E4F | -0.264
E21V | 0.029

Required: abundance fitness, one value per variant below.
1. D16M
2. K25L
3. E38T

a:
1: -0.228; 2: 0.03; 3: -0.051
